Hello, the source for this data is patent US9999622B2, in case you need it.

- Study System: JAK1 (Homo sapiens, UniProt P23458)
- Construct: purchased Carna Biosciences, Inc
- Sequence (P23458 whole entry): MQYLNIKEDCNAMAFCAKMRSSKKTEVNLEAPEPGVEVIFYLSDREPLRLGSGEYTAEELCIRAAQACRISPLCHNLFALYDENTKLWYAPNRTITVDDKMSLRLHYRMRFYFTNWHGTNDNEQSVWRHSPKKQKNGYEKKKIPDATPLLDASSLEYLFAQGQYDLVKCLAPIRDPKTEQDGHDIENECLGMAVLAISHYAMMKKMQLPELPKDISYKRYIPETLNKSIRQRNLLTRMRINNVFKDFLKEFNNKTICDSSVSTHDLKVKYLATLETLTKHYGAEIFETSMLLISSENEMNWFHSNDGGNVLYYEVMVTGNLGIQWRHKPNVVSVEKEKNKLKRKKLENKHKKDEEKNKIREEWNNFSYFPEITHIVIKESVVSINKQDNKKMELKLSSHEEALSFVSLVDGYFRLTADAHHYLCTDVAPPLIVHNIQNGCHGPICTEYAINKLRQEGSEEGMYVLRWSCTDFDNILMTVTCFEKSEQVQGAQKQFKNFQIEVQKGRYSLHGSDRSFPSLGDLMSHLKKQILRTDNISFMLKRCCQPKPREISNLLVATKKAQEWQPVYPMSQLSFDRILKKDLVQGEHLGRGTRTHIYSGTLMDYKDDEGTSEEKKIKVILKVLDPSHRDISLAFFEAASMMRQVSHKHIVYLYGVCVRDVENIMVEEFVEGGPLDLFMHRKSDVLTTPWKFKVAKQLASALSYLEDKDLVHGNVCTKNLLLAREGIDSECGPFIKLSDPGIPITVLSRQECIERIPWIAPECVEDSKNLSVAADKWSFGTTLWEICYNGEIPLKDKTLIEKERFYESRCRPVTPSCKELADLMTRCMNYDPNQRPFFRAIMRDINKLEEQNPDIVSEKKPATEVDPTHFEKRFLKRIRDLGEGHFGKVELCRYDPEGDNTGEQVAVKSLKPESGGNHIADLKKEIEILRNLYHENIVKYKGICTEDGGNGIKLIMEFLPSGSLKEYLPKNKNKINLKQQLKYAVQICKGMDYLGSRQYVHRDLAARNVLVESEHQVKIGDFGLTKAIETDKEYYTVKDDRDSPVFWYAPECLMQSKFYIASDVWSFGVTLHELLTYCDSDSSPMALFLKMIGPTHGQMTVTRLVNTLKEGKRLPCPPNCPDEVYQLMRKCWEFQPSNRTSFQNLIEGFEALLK
- Method Summary: JAK tyrosine kinase inhibitory activity in the presence of 1 mM ATP (ELISA), JAK1
- Type: biochemical
Collected IC50 values appear next to each entry.

Molecular String	IC50 / nM
C[C@@H](Nc1cc(C(=O)N2CCC(NC(=O)C3CC3)CC2)nc(-c2cnn3ccsc23)n1)C1CC1	170
O=C(NC1CCN(C(=O)c2cc(NCC3(COC(F)F)CCC3)nc(-c3cnn4ccsc34)n2)CC1)C1CC1	19
CC[C@H](C)Nc1nc(-c2cnn3ccsc23)nc(C(=O)N2CCC(NC(=O)OC)CC2)c1OC	210
C[C@@H](Nc1cc(C(=O)N2CCC(NC(=O)c3ccccc3Cl)CC2)nc(-c2cnn3ccsc23)n1)C(C)(C)C	110
